From: patent US20250042994A1

- tested_on: T1, human CD19 on Raji cells (human, UniProt P15391 20-556)
- T1 construct: whole, on cells
- T1 sequence (looked up): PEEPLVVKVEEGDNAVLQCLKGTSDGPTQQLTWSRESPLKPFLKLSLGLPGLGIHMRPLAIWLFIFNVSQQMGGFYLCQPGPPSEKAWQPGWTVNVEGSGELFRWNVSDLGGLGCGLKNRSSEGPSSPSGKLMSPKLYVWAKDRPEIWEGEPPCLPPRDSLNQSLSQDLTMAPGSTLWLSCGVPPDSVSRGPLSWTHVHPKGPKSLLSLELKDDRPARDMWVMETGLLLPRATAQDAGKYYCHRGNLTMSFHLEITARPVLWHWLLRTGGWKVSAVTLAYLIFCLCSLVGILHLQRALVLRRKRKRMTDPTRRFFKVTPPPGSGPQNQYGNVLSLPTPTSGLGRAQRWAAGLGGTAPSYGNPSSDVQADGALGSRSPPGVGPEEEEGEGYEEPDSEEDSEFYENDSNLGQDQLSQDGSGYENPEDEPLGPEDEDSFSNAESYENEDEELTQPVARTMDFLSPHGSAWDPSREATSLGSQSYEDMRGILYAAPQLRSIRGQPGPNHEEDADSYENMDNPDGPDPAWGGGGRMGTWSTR
- protocol_text: FACS on Raji cells
- Protocol: The desired cells were scale-up cultured in a T-75 cell culture flask to the logarithmic growth phase. For the adherent cell CHO-K1, the medium was aspirated, the cells were washed 2 times with a PBS buffer, and then digested with trypsin. […] Data analysis was performed by software (FlowJo) to obtain the mean fluorescence intensity (MFI) of the cells. […]
Kindly supply the reported EC50 values for the records listed here.
Dear colleague, please return just the value in nM, with no unit written.

Challenge: Record request: EC50 value, item F3.133.14 (antibody, human IgG1, V domains shown, human-murine chimeric antibody, human IgG1) VH: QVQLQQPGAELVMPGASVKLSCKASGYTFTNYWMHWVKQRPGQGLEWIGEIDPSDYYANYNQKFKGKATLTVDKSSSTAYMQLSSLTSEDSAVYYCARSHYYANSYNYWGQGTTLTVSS VL: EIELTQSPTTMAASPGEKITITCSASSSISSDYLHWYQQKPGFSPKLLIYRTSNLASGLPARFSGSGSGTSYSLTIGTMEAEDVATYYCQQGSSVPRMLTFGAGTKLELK
Response given: 0.93

Challenge: Entry to check: F3.23.10 (antibody, human IgG1, V domains shown, human-murine chimeric antibody, human IgG1) VH: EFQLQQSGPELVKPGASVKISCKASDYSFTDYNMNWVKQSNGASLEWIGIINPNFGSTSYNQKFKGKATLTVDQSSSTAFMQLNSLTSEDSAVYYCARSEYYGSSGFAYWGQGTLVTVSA VL: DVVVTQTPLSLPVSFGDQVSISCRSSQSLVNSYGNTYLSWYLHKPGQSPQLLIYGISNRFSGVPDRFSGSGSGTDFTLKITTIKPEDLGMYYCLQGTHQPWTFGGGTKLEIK
Response given: 4.77

Challenge: Same question for F4.22.6 (antibody, human IgG1, V domains shown, human-murine chimeric antibody, human IgG1) VH: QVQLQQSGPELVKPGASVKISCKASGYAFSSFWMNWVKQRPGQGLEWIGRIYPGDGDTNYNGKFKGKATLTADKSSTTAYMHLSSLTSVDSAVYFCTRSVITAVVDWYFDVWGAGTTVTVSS VL: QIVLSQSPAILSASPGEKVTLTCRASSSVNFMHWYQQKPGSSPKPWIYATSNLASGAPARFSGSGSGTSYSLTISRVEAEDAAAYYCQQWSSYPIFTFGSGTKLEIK please.
Response given: 0.67

Challenge: Another binder to look at: F4.96.6 (antibody, human IgG1, V domains shown, human-murine chimeric antibody, human IgG1) VH: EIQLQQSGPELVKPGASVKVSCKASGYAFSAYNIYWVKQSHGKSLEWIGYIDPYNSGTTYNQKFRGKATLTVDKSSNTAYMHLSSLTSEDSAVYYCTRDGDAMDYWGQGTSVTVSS VL: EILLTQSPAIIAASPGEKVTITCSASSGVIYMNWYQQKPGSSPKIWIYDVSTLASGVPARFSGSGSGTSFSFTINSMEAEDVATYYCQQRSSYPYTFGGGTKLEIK
Response given: 0.74
